B1: glmS ribozyme (parent)
chain: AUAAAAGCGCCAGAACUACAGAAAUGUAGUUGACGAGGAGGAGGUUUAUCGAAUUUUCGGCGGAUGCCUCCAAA

variants of: B1; experiment: self-cleavage kobs at 40 uM GlcN6P; higher = faster cleavage; RNA array; details: with glucosamine-6-phosphate
This sample holds only a part of the variants without activity.
Listing of entries alongside the reported self-cleavage kobs at 40 uM GlcN6P.
MEASUREMENT_LABEL: self-cleavage kobs at 40 uM GlcN6P

# SEQUENCE_INPUT, RESULT
data = [
    ("AUAAAACCGCCAGAACUACAGAAAUGUAGUCGACGAGGAGGAGGUUUAUCGAAUUUUCGGCGGAUGCCUCCAAA [G7C U31C]", "< 1e-05 s⁻¹"),
    ("AUAAAAUCGCCAGAACUACAGAAAUGUAGUCGACGAGGAGGAGGUUUAUCGAAUUUUCGGCGGAUGCGUCCAAA [G7U U31C C68G]", "0.000102 s⁻¹"),
    ("AUAAAAGCGCCAGAACUACAGAAAUGUAGUUGACGAGGAGGAGGUUCAUCGAGUUUUCGGCGGAUGCCUCCAAA [U47C A53G]", "0.000125 s⁻¹"),
    ("AUAAAAGCGCCAGAACUACAGAAAUGUAGUCGACGAGGAGGAGGUUUAUCGAAUUUUGGGCGGAUGCCUCCAAA [U31C C58G]", "< 1e-05 s⁻¹"),
    ("AUAAAAGCGCCAGAACUACAGAAAUGUAUUUAACGAGGAGGAGGUUUAUCGAAUUUUCGGCGGAUGCCUCCAAA [G29U G32A]", "3.81e-05 s⁻¹"),
    ("AUAAAAGCCCCAGAACUACAGAAAUGUAGUUGACGAGGAGGAAGUUUAUCGAAUUUUCGGCGGAUGCCUCCAAA [G9C G43A]", "< 1e-05 s⁻¹"),
    ("AUAAAAUCGCCAGAACUACAGAAAUGUAGUUGGCGAGGAGGAGGUUUAUCGAAUUUUCGGCGGAUGCCUCCAAA [G7U A33G]", "< 1e-05 s⁻¹"),
    ("AUAAAAGCGCCAGAUCUACAGAAAUGUAGUUGACGAGGAGGAGGUUUACCGAAUUUUCGGCGGAUGCCUCCAAA [A15U U49C]", "< 1e-05 s⁻¹"),
    ("AUAAAAGCGCCAGAACUACAGAAAUGUAGUUGACGAGGAGCAGGUUUAUCGAAUUUUCGGCGGAUCCCUCCAAA [G41C G66C]", "< 1e-05 s⁻¹"),
    ("AUAAAAGCGCCAGAACUACAGAAAUGUAGUUGAAGAGUAGGAGGUUUAUCGAAUUUUCGGCGGAUGCCACCAAA [C34A G38U U69A]", "< 1e-05 s⁻¹"),
    ("AUAAAAGCACCAGAACUACAGAAAUGUAGUUGACGAGGAGGAGGUUCAUCUAAUUUUCGGCGAAUGCCUCCAAA [G9A U47C G51U G63A]", "< 1e-05 s⁻¹"),
    ("AUAAACGCGCCAGCACUACAGAAAUGUAGUUGACGAGGAGGAGGGUUAUCGAAUUUCCGGCGGAUGCCUCCAAA [A6C A14C U45G U57C]", "< 1e-05 s⁻¹"),
    ("AUAAAAGCGCCAGAACUACAGAAAUGUAAUUGACGAGGAGGCGGUUUAUCGAAUUUUCGGCGGAUGCCUCCAAA [G29A A42C]", "< 1e-05 s⁻¹"),
    ("AUAAAAGCGCCUGAACUACAGAAAUGUAGUUGACGAGGAGGAGUUUUAUCGAAUUUUCGGCGGAUGCCUCCAAA [A12U G44U]", "3.83e-05 s⁻¹"),
    ("AUAAAAGCGCCACAACUACAGAAAUGUAGUUGACGAGGAGGAGGCUUAUCGAAUUUUCGGCGGAUGCCUCCAAA [G13C U45C]", "< 1e-05 s⁻¹"),
]
